- Tested on: PPARg:RXRa 90nM:30nM, anti-RXR (NR concentration 90 nM, RXRa partner concentration 30 nM)
- measurement-description: PBM binding z-score (relative to random genomic background probes); higher = stronger binding; sequences stand for … in GC…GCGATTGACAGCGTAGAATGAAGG
recorded-endpoint: PBM binding z-score

[[record]]
sequence_data = "ATAACGAGGGCACGCTGAGTTGATAGCAGAGTAG"
target_under_test = "PPARg:RXRa 90nM:30nM, anti-RXR (NR concentration 90 nM, RXRa partner concentration 30 nM)"
recorded_result = 1.22

[[record]]
sequence_data = "TAGCCTAGGTCATTCAGTGGCCAGTATAGAAAGC"
target_under_test = "PPARg:RXRa 90nM:30nM, anti-RXR (NR concentration 90 nM, RXRa partner concentration 30 nM)"
recorded_result = 1.51

[[record]]
sequence_data = "TAGCCTAGGCCATTGGGCCAGTATAGTACGCATC"
target_under_test = "PPARg:RXRa 90nM:30nM, anti-RXR (NR concentration 90 nM, RXRa partner concentration 30 nM)"
recorded_result = -0.438

[[record]]
sequence_data = "ATACGAAGGTGATCGTGAGGTCGTTGATACTAAC"
target_under_test = "PPARg:RXRa 90nM:30nM, anti-RXR (NR concentration 90 nM, RXRa partner concentration 30 nM)"
recorded_result = 0.531

[[record]]
sequence_data = "CGAACTAGGTCAGAACAGGAAAGTGAAGGATGAT"
target_under_test = "PPARg:RXRa 90nM:30nM, anti-RXR (NR concentration 90 nM, RXRa partner concentration 30 nM)"
recorded_result = 3.33

[[record]]
sequence_data = "GCAGACAGGTGAAACGAAGGTAACTCAGGGTGGC"
target_under_test = "PPARg:RXRa 90nM:30nM, anti-RXR (NR concentration 90 nM, RXRa partner concentration 30 nM)"
recorded_result = -0.133

[[record]]
sequence_data = "CCTTACGGGTCACTCCGGGTTATAGCATCGGAGT"
target_under_test = "PPARg:RXRa 90nM:30nM, anti-RXR (NR concentration 90 nM, RXRa partner concentration 30 nM)"
recorded_result = 3.26

[[record]]
sequence_data = "TCTTGCAGATCAAGCAGGTTAAGAAAGCCTGAGT"
target_under_test = "PPARg:RXRa 90nM:30nM, anti-RXR (NR concentration 90 nM, RXRa partner concentration 30 nM)"
recorded_result = 1.14

[[record]]
sequence_data = "CAAACTAGGTCAAAGGTCGAAGTCGAGCCAACCA"
target_under_test = "PPARg:RXRa 90nM:30nM, anti-RXR (NR concentration 90 nM, RXRa partner concentration 30 nM)"
recorded_result = 13.6

[[record]]
sequence_data = "ACTAGCAGGCCAATTTTGGGTCACTCAAACAAAG"
target_under_test = "PPARg:RXRa 90nM:30nM, anti-RXR (NR concentration 90 nM, RXRa partner concentration 30 nM)"
recorded_result = -0.0238

[[record]]
sequence_data = "CTCGAAAGATCGGTTGAGGTGAGTATACGGATAA"
target_under_test = "PPARg:RXRa 90nM:30nM, anti-RXR (NR concentration 90 nM, RXRa partner concentration 30 nM)"
recorded_result = -0.262

[[record]]
sequence_data = "GGAACGAGGGAAAAGTTGATAGCATCTGTCGACG"
target_under_test = "PPARg:RXRa 90nM:30nM, anti-RXR (NR concentration 90 nM, RXRa partner concentration 30 nM)"
recorded_result = 3.49

[[record]]
sequence_data = "GTTTACGGGTCAAAGGTTATAGCATGAATAGAAT"
target_under_test = "PPARg:RXRa 90nM:30nM, anti-RXR (NR concentration 90 nM, RXRa partner concentration 30 nM)"
recorded_result = 10.1

[[record]]
sequence_data = "CCTGCTAGGTCATGGTCAGCTATTCTACAGTATG"
target_under_test = "PPARg:RXRa 90nM:30nM, anti-RXR (NR concentration 90 nM, RXRa partner concentration 30 nM)"
recorded_result = 1.64

[[record]]
sequence_data = "CAAACTAGGTCACGACAGGTCAAAGTCGAATGAC"
target_under_test = "PPARg:RXRa 90nM:30nM, anti-RXR (NR concentration 90 nM, RXRa partner concentration 30 nM)"
recorded_result = 8.02

[[record]]
sequence_data = "TAGCCTAGGTCATTGGGCCAGTATTGTACGCATC"
target_under_test = "PPARg:RXRa 90nM:30nM, anti-RXR (NR concentration 90 nM, RXRa partner concentration 30 nM)"
recorded_result = 2.35

[[record]]
sequence_data = "GCTGCTAGGTCAACTGATTGTCAGCTAAAGCTCG"
target_under_test = "PPARg:RXRa 90nM:30nM, anti-RXR (NR concentration 90 nM, RXRa partner concentration 30 nM)"
recorded_result = 2.12

[[record]]
sequence_data = "AGTCAAAGTTCAGGACGAGGTAACGTACAGCACG"
target_under_test = "PPARg:RXRa 90nM:30nM, anti-RXR (NR concentration 90 nM, RXRa partner concentration 30 nM)"
recorded_result = 3.73

[[record]]
sequence_data = "CGAACTAGGTCCTCCAGGACAGTGAATACATTGA"
target_under_test = "PPARg:RXRa 90nM:30nM, anti-RXR (NR concentration 90 nM, RXRa partner concentration 30 nM)"
recorded_result = 0.278

[[record]]
sequence_data = "CCTAGCAGGCCAATCAGGGTCACTCAAGGCTTGA"
target_under_test = "PPARg:RXRa 90nM:30nM, anti-RXR (NR concentration 90 nM, RXRa partner concentration 30 nM)"
recorded_result = 0.361

[[record]]
sequence_data = "GCGAGTGGGGCATCAGCAGGTTACCATAACTTAA"
target_under_test = "PPARg:RXRa 90nM:30nM, anti-RXR (NR concentration 90 nM, RXRa partner concentration 30 nM)"
recorded_result = 0.332

[[record]]
sequence_data = "CGAACTAGGTCAGCCAGGACAGTGAATACATTGA"
target_under_test = "PPARg:RXRa 90nM:30nM, anti-RXR (NR concentration 90 nM, RXRa partner concentration 30 nM)"
recorded_result = 4.35

[[record]]
sequence_data = "TTACCAAGGTGAAAGATCGTTGATGCACGCCTTG"
target_under_test = "PPARg:RXRa 90nM:30nM, anti-RXR (NR concentration 90 nM, RXRa partner concentration 30 nM)"
recorded_result = 3.77

[[record]]
sequence_data = "CCGAATGGGGCAAAGGTTACCATACTCAGTACGA"
target_under_test = "PPARg:RXRa 90nM:30nM, anti-RXR (NR concentration 90 nM, RXRa partner concentration 30 nM)"
recorded_result = 7.87

[[record]]
sequence_data = "CCGACTGGGGCATAAAGGTTACCATACCATCCGG"
target_under_test = "PPARg:RXRa 90nM:30nM, anti-RXR (NR concentration 90 nM, RXRa partner concentration 30 nM)"
recorded_result = 3.81

[[record]]
sequence_data = "GCTTGTAGATCGAGGTTAAGAAAGACTAAGCTAA"
target_under_test = "PPARg:RXRa 90nM:30nM, anti-RXR (NR concentration 90 nM, RXRa partner concentration 30 nM)"
recorded_result = 0.479

